test: Pharmacokinetics in Sprague Dawley rats, single subcutaneous or intravenous dose (incl. 10, 30, 100 nmol/kg dose response); type: in vivo; conditions: rat, plasma; male Sprague Dawley rats; single intravenous dose 183 nmol/kg; Mean; read-out: C0
*1 amine or outer side, *2 acyl side, *3 side chain or, on linkers, in order; H or OH if unused. Side-chain parts run from the residue outwards. [ ]: non-standard residue; d: D form. The star is where a group is joined. C20 diacid = O=C(O)CCCCCCCCCCCCCCCCCCC(=O)*; γGlu = O=C(O)[C@H](CCC(=O)[*:2])N[*:1]; εLys = N[C@@H](CCCCN[*:1])C(=O)[*:2]; pGlu = O=C1CC[C@@H](C(=O)O)N1; αMeL = CC(C)C[C@](C)(N)C(=O)O; AEEA = NCCOCCOCC(=O)O; Aib = CC(C)(N)C(=O)O

- SUBSTANCE: "[pGlu]GSPSGIVTS[αMeL]DVPT[Aib][αMeL]LQKILEQERAEKARQQAK([γGlu-AEEA-εLys-C20 diacid])EAAEILAQV-NH2 [SEQ ID NO: 22]"
  C0, µM: 4.61
